B1: tRNA (parent)
chain: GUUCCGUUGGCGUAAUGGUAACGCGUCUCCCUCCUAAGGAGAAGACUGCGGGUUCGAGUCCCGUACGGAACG

- Variants of: B1
- experimentSummary: yeast fitness relative to wild type (ratio to wild type); higher = fitter; tRNA-Arg(CCU), competitive growth, 37 C, YPD
Variants at the floor of the assay were thinned out.
I would appreciate it if you labelled entries 1 (yes) when yeast fitness is 0.7 or higher, otherwise 0 (no).

Solved cases below.
C11A A14G A20U C22G C24U G48C G52A | 0 (no)
G9A U59A | 1 (yes)
U8A U26A C29A A65C A70C | 0 (no)
A14U C34G C61G A70C | 0 (no)
C5G A14C G18A A43G A45C C46U A69C | 0 (no)

Q: Is reported yeast fitness greater than or equal to 0.7 here: A36G C61G A69G
Ans: 0 (no)

Q: Record C11A U13A A20G ; criterion: yeast fitness no lower than 0.7. Met?
Ans: 0 (no)
